Each recorded value in this set is attributed to the supplement of paper PMC4466140.

- Target Desc: AgRvs167
- Assay Notes: SPOT peptide array binding signal intensity (averaged, normalized) (arbitrary units (background-subtracted, floor 0; scale differs between SH3 domains)); higher = stronger binding of the SH3 domain to the peptide
Assay Metric: SPOT peptide array binding signal intensity

Binder: DLPLPDLPPEPPTEL
Recorded Result: ≤ 0
//
Binder: APKREAPKPPANTSP
Recorded Result: ≤ 0
//
Binder: EQEEIAPSLPSRNSI
Recorded Result: 3
//
Binder: TTAPALPSLPPPPLL
Recorded Result: 0.667
//
Binder: LASNSPPVYPKRIRH
Recorded Result: 4.17
//
Binder: RPKRRAPPPVPKKPS
Recorded Result: 191
//
Binder: EVTPKVPERPSRRKT
Recorded Result: 11.3
//
Binder: RKRRTHLRLPLIRSN
Recorded Result: 2.83
//
Binder: VPVAPPPPPASLGQS
Recorded Result: 3
//
Binder: PKRRAPPPVPKKPSS
Recorded Result: 100

Prompt line: Look up SPOT peptide array binding signal intensity: "ITHRLRISIPGITGR"
Response line: 16.7

Prompt line: Look up SPOT peptide array binding signal intensity: "PAPPPPPRASRPTPN"
Response line: 34.2

Prompt line: Look up SPOT peptide array binding signal intensity: "GPPPPLPPPLFPSSS"
Response line: 1

Prompt line: Look up SPOT peptide array binding signal intensity: "KMSRSPPRPPSLKII"
Response line: 4.5

Prompt line: Look up SPOT peptide array binding signal intensity: "PLRRTVMSLPGNHDI"
Response line: 3.83
